These entries and their values trace back to patent US20180355059A1.

target: T1, recombinant human PCSK9 protein, His-tagged (Immunogen A, hPCSK9-His) (human, UniProt Q8NBP7 31-692, limits assumed, biotin-labelled in the ELISA and blocking assays (Biotin labeling kit)); assay: blocking ELISA, biotin-hPCSK9-His on coated LDLR ECD-His; antibody 0.32 nM
T1 construct: also called human PCSK9-His; recombinant hPCSK9-His; not shown: His tag
The following binders are shown together with reported OD450 nm (PCSK9 bound to LDLR) values.
State just the number; it will be interpreted in OD450 nm.

Solved entries (count: 2):
binder	recorded_metric	observed
74C10A8, chimeric anti-PCSK9 mAb purified from hybridoma (antibody, V domains shown, From Harbour H2L2 mice: human variable regions, rat constant regions) VH: QVQLQESGPGLVKPSETLSLTCSVSGGSINTYYWSWIRQPPGKGLEWIGYIYYSGSTNYNPSLKSRVTISVDTSKNQFSLKLTSVTAADTAVYYCARERFTMVRGVMMDYYYYGMDVWGQGTTVTVSS VL: DIQLTQSPSFLSASVGDRVTITCRASQGISSYLAWYQQKPGKAPKLLIYAASTLQSGVPSRFSGSGSGTEFTLTISSLQPEDFATYYCQQLNSYPRTFGQGTKVEIK	OD450 nm (PCSK9 bound to LDLR)	1.2
139G1C5, chimeric anti-PCSK9 mAb purified from hybridoma (antibody, V domains shown, From Harbour H2L2 mice: human variable regions, rat constant regions) VH: QVQLQESGPGLVKPSGTLSLTCAVSGGSISRNNWWSWVRQPPGKGLEWIGEIYHSGSTNYNPSLKSRVTISVDKSKNQFSLKLSSVTAADTAVYYCARDLLGIGLDYWGQGTLVTVSS VL: EFVLTQSPATLSLSPGERAILSCRASQSFSSYIAWYQQKPGQAPRLLIYDASNRATGIPARFSGSGSGTDFTLTISSLEPEDFAVYYCQQHSNWMYTFGQGTKLEIK	OD450 nm (PCSK9 bound to LDLR)	1.11

Pending binder:
Query :: What value of OD450 nm (PCSK9 bound to LDLR) has been reported for the following binder? 76A1B11, chimeric anti-PCSK9 mAb purified from hybridoma (antibody, V domains shown, From Harbour H2L2 mice: human variable regions, rat constant regions) VH: QVQLVESGGGVVQPGRSLRLSCAATGFTFSIYGMHWVRQAPGKGLEWVAVIWYDGSNKYYADSVKGRFIISRDNSKNTLYLQMNSLRVEDTAVYYCVSDYFGSGNSYYYYGMDVWGQGTTVTVSS VL: DIQMTQSPSSLSASVGDRVTITCRASQVISNYLAWYQQKPGKVPKLLIYTASTLQSGVPSRFSGSGSGADFTLTISSLQPEDVATYYCQKYNSAPYTFGQGTKLEIK
Result :: 1.19
